Parameter ED50: see the listing below.
- System: compound 48/80-induced lethality in rats
- protocol summary: Protection of rats from compound 48/80-induced lethality
- Format: in vivo, rat (male, inbred Wistar strain)
- details: Rattus norvegicus, 4 h, male Wistar rats; s.c. or oral, one hour before 0.5 mg/kg i.v. compound 48/80; ED50 = dose protecting 50% of animals; survival after 4 hours; read-out: compound 48/80 lethality test in rats-ED50
Dear colleague, please return just the value in mg/kg, with no unit written.

Use the examples below as a reference point.
compound | target desc | u | ED50
c1ccc(CCN2CCC(Nc3nc4cncnc4n3Cc3cccs3)CC2)nc1 | compound 48/80-induced lethality in rats | mg/kg | 0.02
Cc1nc2ccccn2c(=O)c1CCN1CCC(Nc2nc3cncnc3n2Cc2ccccc2)CC1 | compound 48/80-induced lethality in rats | mg/kg | 0.02

For the compound Fc1ccc(Cn2c(NC3CCN(CCc4ccccn4)CC3)nc3cncnc32)cc1 , what ED50 is on record?
0.01

For the compound c1ccc(CCN2CCC(Nc3nc4cncnc4n3Cc3ccccn3)CC2)nc1 , what ED50 is on record?
0.04

For the compound c1cnc(NCCN2CCC(Nc3nc4cncnc4n3Cc3cccs3)CC2)nc1 , what ED50 is on record?
0.08

----------
- Test system: compound 48/80-induced lethality in rats
- protocol summary: Protection of rats from compound 48/80-induced lethality
- Type: in vivo, rat (male, inbred Wistar strain)
- details: Rattus norvegicus, 4 h, male Wistar rats; s.c. or oral, one hour before 0.5 mg/kg i.v. compound 48/80; ED50 = dose protecting 50% of animals; survival after 4 hours; read-out: compound 48/80 lethality test in rats-ED50
result type: ED50

Use the examples below as a reference point.
compound | target desc | ED50
O=c1[nH]c2ccccc2n1CCN1CCC(Nc2nc3cncnc3n2Cc2ccc(F)cc2)CC1 | compound 48/80-induced lethality in rats | 0.08 mg/kg
c1cnc(NCCN2CCC(Nc3nc4cncnc4n3Cc3ccco3)CC2)nc1 | compound 48/80-induced lethality in rats | 0.02 mg/kg
COc1ccc(CCN2CCC(Cc3nc4ncnc(O)c4n3Cc3ccc(F)cc3)CC2)cc1 | compound 48/80-induced lethality in rats | 0.04 mg/kg
Cc1nc2ccccn2c(=O)c1CCN1CCC(Nc2nc3cncnc3n2Cc2ccco2)CC1 | compound 48/80-induced lethality in rats | 0.02 mg/kg
Cc1ccc(Cn2c(NC3CCN(CCc4cc5ccccc5oc4=O)CC3)nc3cncnc32)o1 | compound 48/80-induced lethality in rats | 0.02 mg/kg

For the compound Fc1ccc(Cn2c(NC3CCN(CCNc4nc5cnccc5[nH]4)CC3)nc3cncnc32)cc1 [Compound 183, monohydrate] , what ED50 is on record?
0.04 mg/kg

For the compound Cl.Cl.O.O.c1coc(Cn2c(NC3CCN(CC4COc5ccccc5O4)CC3)nc3cncnc32)c1 (centres unmarked) , what ED50 is on record?
0.08 mg/kg

For the compound O=C(O)/C=C/C(=O)O.O=C(O)/C=C/C(=O)O.O=c1[nH]c2ccccc2n1CCCN1CCC(Cc2nc3cncnc3n2Cc2ccc(F)cc2)CC1 , what ED50 is on record?
0.04 mg/kg

For the compound Cc1nc2ccccn2c(=O)c1CCN1CCC(Nc2nc3cncnc3n2Cc2cnccn2)CC1 , what ED50 is on record?
0.08 mg/kg

For the compound COc1ccc(CCN2CCC(Nc3nc4cncnc4n3Cc3cccs3)CC2)cc1 , what ED50 is on record?
0.02 mg/kg

For the compound O=c1oc2ccccc2cc1CCN1CCC(Nc2nc3cncnc3n2Cc2ccccn2)CC1 , what ED50 is on record?
0.08 mg/kg

For the compound COc1ccc(CCN2CCC(Nc3nc4cncnc4n3Cc3ccccn3)CC2)cc1 , what ED50 is on record?
0.01 mg/kg

For the compound Cc1ccc(Cn2c(NC3CCN(CCNc4ncccn4)CC3)nc3cncnc32)o1 , what ED50 is on record?
0.02 mg/kg

For the compound COc1ccc(CCN2CCC(Nc3nc4cncnc4n3Cc3ccco3)CC2)cc1 , what ED50 is on record?
0.02 mg/kg

For the compound COc1ccc(CCN2CCC(Nc3nc4ncncc4n3Cc3ccc(F)cc3)CC2)cc1 , what ED50 is on record?
0.04 mg/kg

For the compound COc1ccc(CCN2CCC(Oc3nc4cncnc4n3Cc3ccc(F)cc3)CC2)cc1 , what ED50 is on record?
0.08 mg/kg

For the compound Cc1ccc(Cn2c(NC3CCN(CCc4ccccn4)CC3)nc3cncnc32)o1 , what ED50 is on record?
0.01 mg/kg

----------
- Tested on: compound 48/80-induced lethality in rats
- protocol summary: Protection of rats from compound 48/80-induced lethality
- Format: in vivo, rat (male, inbred Wistar strain)
- details: Rattus norvegicus, 4 h, male Wistar rats; s.c. or oral, one hour before 0.5 mg/kg i.v. compound 48/80; ED50 = dose protecting 50% of animals; survival after 4 hours; read-out: compound 48/80 lethality test in rats-ED50
- Text: Protection of rats from compound 48/80-induced lethality. Compound 48/80, a mixture of oligomers obtained by condensation of 4-methoxy-N-methylbenzeneethanamine and formaldehyde has been described as a potent histamine releasing agent (Int. Arch. Allergy, 13, 336 (1958)). The protection from compound 48/80-induced lethal circulatory collapse appears to be a simple way of evaluating quantitatively the antihistaminic activity of test compounds. […]
Parameter ED50: see the listing below.

test smiles | target desc | result type | result
COc1ccc(CCN2CCC(Nc3nc4cncnc4n3Cc3ccc(F)cc3)CC2)cc1 | compound 48/80-induced lethality in rats | ED50 | 0.08 mg/kg
Cc1nc2ccccn2c(=O)c1CCN1CCC(Nc2nc3cncnc3n2Cc2cccs2)CC1 | compound 48/80-induced lethality in rats | ED50 | 0.08 mg/kg
COc1ccc(CCN2CCC(Nc3nc4cncnc4n3Cc3ccc(C)o3)CC2)cc1 | compound 48/80-induced lethality in rats | ED50 | 0.04 mg/kg

// lookup ED50 | system=compound 48/80-induced lethality in rats | key= O=c1oc2ccccc2cc1CCN1CCC(Nc2nc3cncnc3n2Cc2ccco2)CC1
0.04 mg/kg

// lookup ED50 | system=compound 48/80-induced lethality in rats | key= Fc1ccc(Cn2c(CC3CCN(CCNc4ncccn4)CC3)nc3cncnc32)cc1
0.08 mg/kg

// lookup ED50 | system=compound 48/80-induced lethality in rats | key= COc1ccc(CCN2CCC(Nc3nc4cncnc4n3Cc3ccccc3)CC2)cc1
0.08 mg/kg

----------
- Test system: compound 48/80-induced lethality in rats
- protocol summary: Protection of rats from compound 48/80-induced lethality
- Format: in vivo, rat (male, inbred Wistar strain)
- details: Rattus norvegicus, 4 h, male Wistar rats; s.c. or oral, one hour before 0.5 mg/kg i.v. compound 48/80; ED50 = dose protecting 50% of animals; survival after 4 hours; read-out: compound 48/80 lethality test in rats-ED50
Parameter ED50: see the listing below.
Dear colleague, please return just the value in mg/kg, with no unit written.

compound | u | ED50
COc1ncnc2c1nc(CC1CCN(CCNc3ncccn3)CC1)n2Cc1ccc(F)cc1 | mg/kg | 0.08

For the compound Cc1ccc(Cn2c(NC3CCN(CC4COc5ccccc5O4)CC3)nc3cncnc32)o1 (stereo not shown) , what ED50 is on record?
0.01

For the compound c1ccc(CCN2CCC(Nc3nc4cncnc4n3Cc3ccco3)CC2)nc1 , what ED50 is on record?
0.02

For the compound Fc1ccc(Cn2c(NC3CCN(CCNc4nccs4)CC3)nc3cncnc32)cc1 , what ED50 is on record?
0.04

These data points were gathered from patent US5041448A.
